# Test system: CCRF-CEM leukemia
# Method: NCI tumour cell line growth inhibition, 48 h
Experimental Endpoint: TGI

Cc1c(/C=C2\CC/C(=C\c3[nH]c(C(=O)OC(C)(C)C)c(C)c3C)C2=O)[nH]c(C(=O)OC(C)(C)C)c1C	> 100 µM
O=[N+]([O-])/C(C(Cl)=C(Cl)Cl)=C1\Nc2ccccc2O1	38.7 µM
CN(C)CCNC(=O)c1ccc2ccc3cccnc3c2n1	> 100 µM

Q: Name the recorded TGI for O=c1cnn(C2OC(CO)C(O)C(F)C2O)c(=O)[nH]1 (centres undefined) .
Ans: > 100 µM

====

# Test system: U251 CNS
Output constraint: value belongs to TRUE = active, FALSE = inactive

Consider the worked cases shown below.
O=C1c2ccn(CCCCN3CCOCC3)c2C(=O)c2c1c(O)c1ccccc1c2O	FALSE
C=C1C(=O)O[C@H]2[C@H]1CC/C(COC(=O)OCCCCCOC(=O)OC/C1=C/CC[C@@]3(C)O[C@H]3[C@H]3OC(=O)C(=C)[C@@H]3CC1)=C\CC[C@@]1(C)O[C@@H]21	FALSE
COc1cc2c(-c3nc4cc(Cl)c(F)cc4s3)cc(=O)oc2c(C)c1OC	FALSE
C=C1CC2CC[C@@]34C[C@@H]5O[C@@H]6C(O[C@H]7CC[C@H](CC(=O)OC8[C@@H](C)C9OC%10C[C@]%11(C[C@@H]%12O[C@@]%13(C[C@@H](C)[C@@H]%12O%11)C[C@H](C)[C@@H]%11OC%12CC(C(O)CO)OC%12C[C@@H]%11O%13)OC%10CC9O[C@H]8C[C@H]8O[C@@H](CC[C@@H]1O2)C[C@@H](C)C8=C)O[C@@H]7[C@@H]6O3)C5O4 (stereo partly specified)	TRUE
COC1=CC(c2ccc[nH]2)=N/C1=C\c1[nH]c(C)c(C(=O)CCC(=O)Oc2ccc3c(c2)CCC2C3CC[C@]3(C)C(=O)CC[C@@H]23)c1C (stereo partly specified)	FALSE

Q: Assay outcome for CCN(CC)c1ccc(NC(C(=O)c2ccccc2)c2ccccc2)cc1 (stereo unspecified) : what was it?
Ans: FALSE

Q: What is the recorded call for this molecule in the test? Nc1ccccc1C#C/C=C\C#Cc1ccc(F)cc1F
Ans: FALSE

Q: Hi, do you know how C[C@]12CC[C@H](O)CC1=CC[C@@H]1[C@@H]2CC[C@]2(C)C(=O)/C(=C/c3cccc(OCCCn4ccnc4)c3)C[C@@H]12 came out in this test?
Ans: FALSE
